FYI, the data here is from the supplement of paper PMC10567573.

B1: KCNG1 (parent)
chain: LFVTVTAVNLSVSTLPSLREEEEQ

- Variants of: B1
- testProtocol: protein stability index of a GFP-peptide fusion (GPS, HEK-293T) (PSI 1-6); higher = more stable;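 note: lentivirally expressed fusions sorted by FACS into six bins by GFP to DsRed ratio, PSI derived from sequencing read proportions per bin multiplied by bin number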
- measurementContext: c terminus: a fixed tail appended
Please mark fulfilled if the recorded protein stability index is equal to or greater than 2, and not fulfilled if it falls below.

# mutations, qualitativeLabel
rows = [
    ("L1N", "fulfilled"),
    ("V12Y", "fulfilled"),
    ("T14K", "not fulfilled"),
    ("V3F", "not fulfilled"),
    ("L18I", "not fulfilled"),
    ("T14S", "not fulfilled"),
    ("F2N", "fulfilled"),
    ("L1S", "fulfilled"),
    ("L10W", "fulfilled"),
    ("V12R", "not fulfilled"),
    ("N9H", "fulfilled"),
    ("E21G", "not fulfilled"),
    ("L10N", "fulfilled"),
    ("T6D", "fulfilled"),
    ("L15V", "not fulfilled"),
    ("R19C", "fulfilled"),
    ("V3R", "fulfilled"),
    ("L1Q", "fulfilled"),
    ("V3S", "fulfilled"),
    ("T14Y", "fulfilled"),
    ("V5E", "fulfilled"),
    ("V12G", "not fulfilled"),
]
